- system: TrufOBP4
- method-summary: Fluorescence competitive binding assay (displacement of 1-NPN)
- measurement-setup: ligand concentration displacing 50% of 1-NPN; 2 μM protein, 50 mM Tris-HCl pH 7.4
measurement-kind: log10(IC50) (log10 of the value in µM)
In plain terms, each number is the log10 of measured IC50 in µM.

Give log10(IC50) for C=C(C)[C@@H]1CC=C(C)CC1 [(S)-(−)-Limonene] tested on TrufOBP4.
1.52

Give log10(IC50) for CCCCC(CC)CO (stereo not shown) tested on TrufOBP4.
1.38

Give log10(IC50) for CCCCC(CC)COC(=O)C=Cc1ccc(OC)cc1 (stereo not shown) [Octyl methoxycinnamate] tested on TrufOBP4.
0.12

Give log10(IC50) for CCCCOC(=O)c1ccccc1C(=O)OCCCC [Dibutyl phthalate] tested on TrufOBP4.
0.72

Give log10(IC50) for C=C1CCC2CC1C2(C)C (stereo not shown) tested on TrufOBP4.
1.52

Give log10(IC50) for CC1=CCC2C(C1)C2(C)C (stereo not shown) tested on TrufOBP4.
1.35

Give log10(IC50) for CC(=O)OCCC(C)C [Isoanyl acetate] tested on TrufOBP4.
1.38

Give log10(IC50) for CCCCCCCCCCCCCCCC(=O)O tested on TrufOBP4.
0.78

Give log10(IC50) for C=Cc1ccccc1 tested on TrufOBP4.
1.62

Give log10(IC50) for C=CC(=C)CCC=C(C)C tested on TrufOBP4.
1.30

Give log10(IC50) for CCCCCCCCCCCCCC(=O)O tested on TrufOBP4.
0.61

Give log10(IC50) for CCC=CCCOC(C)=O [3-Hexenyl acetate] tested on TrufOBP4.
1.67

Give log10(IC50) for C=C(C)[C@H]1CC=C(C)CC1 [(R)-(+)-limonene] tested on TrufOBP4.
1.40
